Assay: gradient 5% acetonitrile 3 min, to 50% in 2 min, to 85% in 15 min, held 3 min, 100 µL/min
Settings: column: Zorbax Extend-C18 2.1 x 50 mm; eluents: water / acetonitrile, 0.1% formic acid
In plain terms, low RP-LC retention time, meaning strictly below 800 s, gives Satisfied, and everything else gives Not satisfied.

Some solved entries appear below for comparison.
compound=Cn1cnc2ccc(-c3noc(-c4cccc(NC(=O)c5ccco5)c4)n3)cc21 class=Satisfied
compound=COc1cc(C(=O)Nc2nc(-c3ccc4c(c3)NC(=O)CO4)c(C)s2)cc(OC)c1OC class="Not satisfied"
compound="Cc1ccc(N2C(=O)C3N=NN(Cc4nc(-c5ccccc5C)no4)C3C2=O)cc1C (centres undefined)" class="Not satisfied"
compound="CCC(C)C(NC(=O)c1ccccn1)C(=O)Nc1nc2ccccc2[nH]1 (centres undefined)" class=Satisfied
compound=CC1=NN(c2cccc(C(=O)O)c2)C(=O)/C1=C\c1ccc(-c2ccc(Cl)c(C(=O)O)c2)o1 class="Not satisfied"
compound="CNC(=O)C1CCCN(C(=O)Nc2ccc(NC(=O)Nc3ccccc3)cc2)C1 (centres undefined)" class=Satisfied
compound=CCOc1ccccc1NC(=O)N1CCc2nc(OCCOC)ccc2C1 class="Not satisfied"
compound=COc1ccc(NC(=O)c2c(OC)cc(=O)n3c2CCCC3)c(OC)c1 class="Not satisfied"

Here's an entry: CC(C)c1ccc(NC(=O)Cn2c(=O)cc(-c3nc(C4CC4)no3)c3ccccc32)cc1 . Is its RP-LC retention time below 800 s?
Not satisfied

Would you kindly verify if RP-LC retention time of COc1ccccc1NC(=O)N(C)CCc1noc(COc2ccc(F)cc2)n1 is strictly less than 800 s?
Not satisfied

State whether 800 s exceeds RP-LC retention time recorded for CCC(C(=O)N1CCC(C)CC1)n1cnc2onc(-c3ccc(Cl)cc3)c2c1=O (centres undefined) .
Not satisfied

Confirm or reject: RP-LC retention time of Cc1nc(-c2cc(S(=O)(=O)Nc3ccc(F)cc3Cl)c(C)s2)cs1 lies strictly below 800 s
Not satisfied

API: query returns whether the compound falls strictly under 800 s in RP-LC retention time. Query: Cc1noc2nc(CCC(=O)NCCCN3CCc4ccccc4C3)nc(N3CCOCC3)c12
Satisfied

Here's an entry: CCOC(=O)c1ccc(NC(=O)Cn2cnc3nc(N4CCCC4)ncc3c2=O)cc1 . Is its RP-LC retention time below 800 s?
Satisfied

Please check: RP-LC retention time for O=C(NCc1ccccc1C(F)(F)F)c1ccnc(N2CCCCC2)n1 , strictly under 800 s or not?
Not satisfied

Record CCC(C(=O)NC(C)C(=O)Nc1nc2ccccc2[nH]1)c1ccccc1 (centres undefined) : is its RP-LC retention time strictly below 800 s?
Satisfied

Lab note: RP-LC retention time threshold 800 s. Does this compound come in strictly under it? Cc1nnc(-c2cn(CC(=O)Nc3ccccc3Br)c3ccccc23)o1
Not satisfied

Is RP-LC retention time of O=C(COc1cccc(Cl)c1)Nc1nc(-c2ccc(Br)cc2)cs1 strictly below 800 s?
Not satisfied

Is 800 s strictly greater than the compound's reported RP-LC retention time? compound: N#Cc1cccc(C(=O)NC2(c3nc(-c4ccncc4)no3)CCCCC2)c1
Not satisfied

Is 800 s strictly greater than the compound's reported RP-LC retention time? compound: O=C(NCc1ccco1)C(=O)c1cccn1Cc1ccc(F)cc1
Not satisfied

In plain terms, does CCn1cc(CN(C)C(=O)C2N(C(C)C)C(=O)C23CCCC3)c(C)n1 (centres undefined) come in under 800 s for RP-LC retention time?
Satisfied
